Tested on: T24 (bladder) human-derived tumor cell line
experimental-details: MTT reduction antiproliferative assay, T24 bladder cells
Format: cell-based
stated-conditions: 48 h incubation, mean of at least three experiments, read-out: EC50 ± SEM T24
readout-type: EC50 (µM)

Some molecules with known EC50 results, for comparison:
{"molecule": "Cc1cccc(C(=O)c2cc(O)c3ccccc3c2O)c1 [compound 15]", "system-tested": "T24 (bladder) human-derived tumor cell line", "EC50 / µM": 137}
{"molecule": "COc1cc(C(=O)c2cc(O)ccc2O)cc(OC)c1OC [compound 12]", "system-tested": "T24 (bladder) human-derived tumor cell line", "EC50 / µM": 3.6}
{"molecule": "COc1ccc(C(=O)c2cc(O)ccc2O)cc1 [compound 8]", "system-tested": "T24 (bladder) human-derived tumor cell line", "EC50 / µM": 168}

I. COc1cc(C(=O)c2cc(O)c3ccccc3c2O)ccc1O [compound 21]
II. Cc1ccc(C(=O)c2cc(O)ccc2O)cc1 [compound 6]
When their EC50 values are compared, which is larger, I or II ? Give the label of your selection.
II
(II: 209 µM, I: 86.6 µM)
